Biological target: Mt-PrsA (Mycobacterium tuberculosis)
Experiment: Intrinsic tryptophan fluorescence
Type: binding
Conditions: Kd (ITF), ligand alone, 70 µM Mt-PrsA
readout.kind: pKd
Quick note: pKd means taking -log10 of the concentration in moles per liter.

Bench note: what pKd did O=C[C@H](O)[C@H](O)[C@H](O)COP(=O)(O)O [R5P, ribose-5-phosphate] show?
4.61

---

Target: Mt-PrsA (Mycobacterium tuberculosis, UniProt P9WKE3)
Sequence (P9WKE3 1-326): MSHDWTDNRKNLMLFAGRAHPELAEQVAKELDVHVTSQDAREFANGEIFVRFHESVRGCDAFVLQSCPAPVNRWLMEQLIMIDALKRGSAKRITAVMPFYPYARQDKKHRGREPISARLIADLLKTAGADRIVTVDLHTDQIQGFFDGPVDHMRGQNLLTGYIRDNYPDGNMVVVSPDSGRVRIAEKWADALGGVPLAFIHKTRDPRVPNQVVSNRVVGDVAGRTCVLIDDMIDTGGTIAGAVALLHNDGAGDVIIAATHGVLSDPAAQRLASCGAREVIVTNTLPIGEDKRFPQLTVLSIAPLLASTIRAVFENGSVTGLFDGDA
readout.kind: Ki (µM)
Report as a plain number; the unit µM is understood.

Bench note: what Ki did Nc1ncnc2c1ncn2[C@@H]1O[C@H](COP(=O)(O)OP(=O)(O)O)[C@@H](O)[C@H]1O [ADP] show?
522

Cited source: paper PMC3055594
